quantity_kind: melting point

Reference set (3 entries):
compound	melting point
OC(Cn1ccnc1)c1cccc(OCc2ccccc2Br)c1 (stereo not shown) [Compound 5f]	132 to 140 °C
OC(Cn1ccnc1)c1cccc(OCc2cccc(Br)c2)c1 (stereo not shown) [Compound 5e]	93.5 to 99.4 °C
OC(Cn1ccnc1)c1ccc(OCc2cccc(Br)c2)cc1 (stereo not shown) [Compound 5c]	120.1 to 123 °C

The measured melting point associated with OC(Cn1ccnc1)c1ccccc1OCc1ccc(Br)cc1 (stereo not shown) [Compound 5b] reads 121.5 to 130 °C

// melting point value for OC(Cn1ccnc1)c1ccc(OCc2ccccc2Br)cc1 (stereo not shown) [Compound 5d] : 120 to 126 °C

Brc1ccc(COc2ccc(CCn3ccnc3)cc2)cc1 [Compound 2b] yielded melting point of 147.5 to 149.7 °C

Short answer for OC(Cn1ccnc1)c1cccc(OCc2ccc(Br)cc2)c1 (stereo not shown) [Compound 5a] : melting point was 123 to 126 °C
